test system: Plasmodium falciparum 3D7; experiment: P. falciparum 3D7 asexual blood stage assay, Assay Procedure Version 1 (SYBR green readout); format: cell-based; details: 3D7, Erythrocyte, Version 1 of the assay procedure (no asterisk), 72 h incubation in infected erythrocytes, 10,000 nM to 0.51 nM
pIC50: −log10 of the molar value.
READOUT_LABEL: pIC50

• C[C@@]1(c2cccc(Nc3ccc(F)cc3)c2Cl)CC(=O)N(C2CC3(COC3)C2)C(=N)N1 [Example 171] = 5.94

a = C[C@@]1(c2cccc(Nc3ccc(F)cc3)c2Cl)CC(=O)N([C@H]2C[C@@H]3CC[C@H]2O3)C(=N)N1 (racemic) [Example 188]
b = C[C@@]1(c2cccc(Nc3ccc(S(C)(=O)=O)cc3)c2Cl)CC(=O)N(C2CCOCC2)C(=N)N1 [Example 39]
c = C[C@@]1(c2cccc(Nc3ccc(F)cc3F)c2Cl)CC(=O)N([C@H]2C[C@@](C)(O)C2)C(=N)N1 [Example 120]
Sort by pIC50, descending. Answer by naming the labels in the order asked.
c, b, a

---

tested on: Plasmodium falciparum 3D7; assay: P. falciparum 3D7 asexual blood stage assay, Assay Procedure Version 1 (SYBR green readout); type: cell-based; details: 3D7, Erythrocyte, Version 1 of the assay procedure (no asterisk), 72 h incubation in infected erythrocytes, 10,000 nM to 0.51 nM
pIC50: −log10 of the molar value.
READOUT_LABEL: pIC50

- COc1ccc(Nc2cccc([C@]3(C)CC(=O)N(C4CCOCC4)C(=N)N3)c2Cl)cc1OC: 5.66
- C[C@@]1(c2cccc(Nc3ccc(C(F)(F)F)cc3)c2Cl)CC(=O)N(CC2CCOCC2)C(=N)N1: 5.81
- C[C@@]1(c2cccc(Nc3ccccc3)c2Cl)CC(=O)N(CC2(O)CC2)C(=N)N1: 6.40
- C[C@@]1(c2cccc(Nc3ccc(OC(F)F)cc3)c2Cl)CC(=O)N(C2CCOCC2)C(=N)N1: 5.94

P = C[C@@]1(c2cccc(Nc3ccccc3)c2Cl)CC(=O)N([C@H]2C[C@@](C)(O)C2)C(=N)N1
Q = COC(=O)c1cccc(Nc2cccc([C@]3(C)CC(=O)N(C4CCOCC4)C(=N)N3)c2Cl)c1
Please choose the item with the lower pIC50 value from this pair: P and Q Could you answer with the label of the item you picked?
Q
(Q: 5.75, P: 6.64)

---

tested on: Plasmodium falciparum 3D7; experiment: P. falciparum 3D7 asexual blood stage assay, Assay Procedure Version 1 (SYBR green readout); assay type: cell-based; conditions: 3D7, Erythrocyte, Version 1 of the assay procedure (no asterisk), 72 h incubation in infected erythrocytes, 10,000 nM to 0.51 nM
pIC50: −log10 of the molar value.
READOUT_LABEL: pIC50

• C[C@@]1(c2cccc(Nc3cc(F)c(F)cc3F)c2Cl)CC(=O)N(C2CCOCC2)C(=N)N1 [Example 38] = 6.09
• C[C@@]1(c2cccc(Nc3ccccc3F)c2Cl)CC(=O)N(C2CCOCC2)C(=N)N1 [Example 36] = 5.54
• Cc1cc(Nc2cccc([C@]3(C)CC(=O)N(C4CCOCC4)C(=N)N3)c2Cl)ccc1F [Example 10] = 6.16
• C[C@@]1(c2cccc(Nc3ccc(F)cc3)c2Cl)CC(=O)N([C@@H]2CCOC2)C(=N)N1 (relative stereo) [Example 169] = 6.49
• C[C@@]1(c2cccc(Nc3ccccc3Cl)c2Cl)CC(=O)N(C2CCOCC2)C(=N)N1 [Example 15] = 5.82
• Cc1cccc(Nc2cccc([C@]3(C)CC(=O)N(C4CCOCC4)C(=N)N3)c2Cl)c1 [Example 8] = 6.48

P = C[C@@]1(c2cccc(Nc3cccnc3)c2Cl)CC(=O)N(C2CCOCC2)C(=N)N1 [Example 20]
Q = C[C@@]1(c2cccc(Nc3cccc(F)c3)c2Cl)CC(=O)N(C2CCOCC2)C(=N)N1 [Example 168]
Please choose the item with the lower pIC50 value from this pair: P and Q Could you answer with the label of the item you picked?
P

---

System: Plasmodium falciparum 3D7
Assay: P. falciparum 3D7 asexual blood stage assay, Assay Procedure Version 1 (SYBR green readout)
Assay type: cell-based
Settings: 3D7, Erythrocyte, Version 1 of the assay procedure (no asterisk), 72 h incubation in infected erythrocytes, 10,000 nM to 0.51 nM
Source text: Asexual Blood Stage Assay The assay used to measure the effect of test compounds on a bloodstream stage of Plasmodium falciparum 3D7 strain employs SYBR green as the readout. This is a dye that binds to double stranded deoxyribonucleic acid (DNA) with a resulting increase in fluorescence, allowing detection of P. falciparum DNA in infected erythrocytes, and thereby providing a measure of parasite growth and propagation. P. falciparum Culture Maintenance […]
pIC50: −log10 of the molar value.
READOUT_LABEL: pIC50

Consider the reported pIC50 for these compounds:
- Cc1ncc(Nc2cccc([C@]3(C)CC(=O)N(C4CCOCC4)C(=N)N3)c2Cl)cn1: 6.00
- C[C@@]1(c2cccc(Nc3ccc(C#N)nc3)c2Cl)CC(=O)N(C2CCOCC2)C(=N)N1: 5.82
- C[C@@]1(c2cccc(Nc3ccccc3C(F)(F)F)c2Cl)CC(=O)N(C2CCOCC2)C(=N)N1: 5.64
- C[C@@]1(c2cccc(Nc3ccc(F)cc3)c2Cl)CC(=O)N([C@@H]2CCCOC2)C(=N)N1 (relative stereo): 5.59

A = C[C@@]1(c2cccc(Nc3cc(Cl)cc(C#N)c3)c2Cl)CC(=O)N(C2CCOCC2)C(=N)N1
B = Cc1ccc(Nc2cccc([C@]3(C)CC(=O)N(C4CCOCC4)C(=N)N3)c2Cl)cc1
Please choose the item with the lower pIC50 value from this pair: A and B Could you answer with the label of the item you picked?
B
(B: 5.77, A: 6.10)

---

System: Plasmodium falciparum 3D7
Experiment: P. falciparum 3D7 asexual blood stage assay, Assay Procedure Version 1 (SYBR green readout)
Type: cell-based
Settings: 3D7, Erythrocyte, Version 1 of the assay procedure (no asterisk), 72 h incubation in infected erythrocytes, 10,000 nM to 0.51 nM
Source text: Asexual Blood Stage Assay The assay used to measure the effect of test compounds on a bloodstream stage of Plasmodium falciparum 3D7 strain employs SYBR green as the readout. This is a dye that binds to double stranded deoxyribonucleic acid (DNA) with a resulting increase in fluorescence, allowing detection of P. falciparum DNA in infected erythrocytes, and thereby providing a measure of parasite growth and propagation. P. falciparum Culture Maintenance […]
READOUT_LABEL: IC50 (nM)

I = CC1(O)CC(N2C(=N)N[C@](C)(c3cccc(Nc4ccc(F)cc4)c3Cl)CC2=O)C1 (stereo partly drawn)
II = C[C@@]1(c2cccc(Nc3cccc(C(F)(F)F)c3)c2Cl)CC(=O)N(C2CCOCC2)C(=N)N1
III = C[C@@]1(c2cccc(Nc3ccnc(F)c3)c2Cl)CC(=O)N(C2CCOCC2)C(=N)N1
Parameters: sort_field (IC50), sort_dir (desc). Answer by naming the labels in the order asked.
II, III, I
(II: 913 nM, III: 539 nM, I: 228 nM)

P = C[C@@H]1C[C@H](N2C(=N)N[C@](C)(c3cccc(Nc4cnc(C5CC5)nc4)c3Cl)CC2=O)CCO1 (relative stereo)
Q = C[C@@]1(c2cccc(Nc3ccc(F)cc3)c2Cl)CC(=O)N(CC2CCOCC2)C(=N)N1 (single isomer, unassigned)
R = C[C@@]1(c2cccc(Nc3cccc(S(C)(=O)=O)c3)c2Cl)CC(=O)N(C2CCOCC2)C(=N)N1
Sort by IC50, descending. Answer by naming the labels in the order asked.
R, Q, P

P = C[C@@]1(c2cccc(Nc3ccc(F)cc3)c2Cl)CC(=O)N(C2CCOCC2)C(=N)N1
Q = C[C@@]1(c2cccc(Nc3cccc(Cl)c3)c2Cl)CC(=O)N(C2CCOCC2)C(=N)N1
R = C[C@@]1(c2cccc(Nc3ccccc3)c2Cl)CC(=O)N(CC2CCOCC2)C(=N)N1
Sort by IC50, descending. Answer by naming the labels in the order asked.
Q, P, R
(Q: 334 nM, P: 200 nM, R: 80 nM)
